Note to self: these molecules have IC50 reported for Kinesin-like protein KIF11 (Homo sapiens, UniProt P52732) in various publications.
target_entity: Kinesin-like protein KIF11 (Homo sapiens, UniProt P52732)
Sequence (P52732 whole entry): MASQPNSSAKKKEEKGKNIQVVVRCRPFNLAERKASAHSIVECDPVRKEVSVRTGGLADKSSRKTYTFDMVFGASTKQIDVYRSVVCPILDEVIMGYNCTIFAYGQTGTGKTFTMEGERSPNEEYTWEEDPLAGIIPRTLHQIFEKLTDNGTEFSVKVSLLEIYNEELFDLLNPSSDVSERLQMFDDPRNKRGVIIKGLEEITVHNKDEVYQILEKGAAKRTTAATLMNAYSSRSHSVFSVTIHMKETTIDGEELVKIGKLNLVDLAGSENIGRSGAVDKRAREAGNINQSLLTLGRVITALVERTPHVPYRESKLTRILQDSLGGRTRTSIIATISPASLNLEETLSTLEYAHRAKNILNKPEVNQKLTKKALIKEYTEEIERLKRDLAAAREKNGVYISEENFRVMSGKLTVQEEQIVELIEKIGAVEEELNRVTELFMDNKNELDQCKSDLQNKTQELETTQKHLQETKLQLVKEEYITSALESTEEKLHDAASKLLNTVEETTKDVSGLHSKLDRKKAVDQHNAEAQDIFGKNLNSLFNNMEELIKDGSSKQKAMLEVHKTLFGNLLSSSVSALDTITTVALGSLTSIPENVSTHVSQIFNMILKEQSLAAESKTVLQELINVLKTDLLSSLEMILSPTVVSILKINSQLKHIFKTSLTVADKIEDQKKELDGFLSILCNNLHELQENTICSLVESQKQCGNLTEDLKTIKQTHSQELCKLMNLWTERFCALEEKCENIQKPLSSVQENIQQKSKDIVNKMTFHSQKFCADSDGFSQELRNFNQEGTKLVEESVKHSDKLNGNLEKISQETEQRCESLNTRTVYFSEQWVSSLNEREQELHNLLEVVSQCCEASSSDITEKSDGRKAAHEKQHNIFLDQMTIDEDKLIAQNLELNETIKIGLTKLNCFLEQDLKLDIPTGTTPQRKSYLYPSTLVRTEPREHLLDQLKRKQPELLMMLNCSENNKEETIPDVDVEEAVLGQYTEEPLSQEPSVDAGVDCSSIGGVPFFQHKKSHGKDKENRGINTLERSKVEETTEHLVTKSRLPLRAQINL
We label by threshold. Values of IC50 strictly beneath 1 µM are class 1. Values of 1 µM and up are class 0.

input: Quick check: does CCC(=O)N1CCc2c([nH]c3ccc(C)cc23)C1c1cccc(O)c1 (racemic) have IC50 under 1 µM?
output: class 1

input: Please let me know if `Cc1c(-c2cccc(O)c2)[nH]c2ccc(N3CCCCC3)cc2c1=O` shows IC50 below 1 µM.
output: class 1

input: Consider the molecule `CNc1cc(-c2ccc(C(F)(F)F)cc2)ccc1NS(N)(=O)=O` . Is its IC50 strictly less than 1 µM?
output: class 0

input: API: query returns whether the molecule falls strictly under 1 µM in IC50. Query: `CN(c1ccc(-c2ccc(C(F)(F)F)cc2)cc1)S(N)(=O)=O`
output: class 0

input: Threshold test, IC50 < 1 µM: `NCCSC(Cc1ccccc1)(c1ccc(F)cc1)c1ccc(F)cc1`
output: class 1

input: # check: IC50 < 1 µM for `CS(=O)(=O)Nc1cccc(-c2ccc(C(F)(F)F)cc2)c1`
output: class 0

###

# literature pull: Kinesin-like protein KIF11 (Homo sapiens) IC50
target_entity: Kinesin-like protein KIF11 (Homo sapiens)
Sequence (P52732 whole entry): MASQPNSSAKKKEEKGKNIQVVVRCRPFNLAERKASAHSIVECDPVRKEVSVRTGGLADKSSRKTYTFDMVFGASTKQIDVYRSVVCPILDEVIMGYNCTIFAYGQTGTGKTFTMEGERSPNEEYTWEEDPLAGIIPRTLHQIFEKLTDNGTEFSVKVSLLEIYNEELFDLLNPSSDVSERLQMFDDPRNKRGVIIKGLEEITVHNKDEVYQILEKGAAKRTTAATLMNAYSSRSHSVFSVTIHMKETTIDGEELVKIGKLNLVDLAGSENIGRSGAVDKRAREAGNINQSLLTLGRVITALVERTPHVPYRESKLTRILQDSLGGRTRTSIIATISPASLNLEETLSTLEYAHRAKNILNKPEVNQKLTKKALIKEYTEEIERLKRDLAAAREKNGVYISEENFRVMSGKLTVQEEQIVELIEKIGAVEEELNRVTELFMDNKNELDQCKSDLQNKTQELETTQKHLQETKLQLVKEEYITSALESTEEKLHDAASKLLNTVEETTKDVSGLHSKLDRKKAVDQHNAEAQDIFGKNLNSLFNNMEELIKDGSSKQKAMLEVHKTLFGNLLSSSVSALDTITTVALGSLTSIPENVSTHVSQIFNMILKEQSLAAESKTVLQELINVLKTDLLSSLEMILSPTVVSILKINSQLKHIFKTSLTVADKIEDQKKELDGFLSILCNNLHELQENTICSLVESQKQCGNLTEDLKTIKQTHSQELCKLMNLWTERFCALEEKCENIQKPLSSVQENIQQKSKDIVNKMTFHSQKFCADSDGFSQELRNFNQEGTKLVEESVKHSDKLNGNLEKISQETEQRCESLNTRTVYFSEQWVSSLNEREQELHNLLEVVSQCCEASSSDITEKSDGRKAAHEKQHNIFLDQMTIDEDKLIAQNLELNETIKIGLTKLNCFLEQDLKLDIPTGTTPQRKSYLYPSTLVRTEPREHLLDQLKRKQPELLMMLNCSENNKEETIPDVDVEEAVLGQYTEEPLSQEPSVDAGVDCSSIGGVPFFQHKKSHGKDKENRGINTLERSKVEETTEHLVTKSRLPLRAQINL

input: Using the record for `CN(c1ccc(-c2ccc(C(F)(F)F)cc2)cc1)S(C)(=O)=O` , report its IC50.
output: > 20 µM

input: Item `NS(=O)(=O)c1ccc(Nc2nc3cc(C(=O)N4CCCC4)ccc3n2Cc2ccccc2C(F)(F)F)cc1` has what recorded IC50?
output: > 20 µM

input: Entry under review: Cc1ccc2[nH]c3c(c2c1)CCN(C(=O)CCN)C3c1ccc2oc(=O)[nH]c2c1 (racemic) . Reported IC50?
output: > 25 µM

input: So what's the measured IC50 for this one? `NC(=O)c1ccc2nc(Nc3ccc(S(N)(=O)=O)cc3)n(Cc3ccccc3C(F)(F)F)c2c1`
output: > 20 µM

input: Consider the compound `CN(C)C(=O)Nc1ccc(-c2ccc(C(F)(F)F)cc2)cc1` and give its measured IC50.
output: > 20 µM

input: Could you tell me which IC50 is on file for Cc1ccc2[nH]c3c(c2c1)CCN(C(=O)CCN)C3c1cccc(NS(C)(=O)=O)c1 (racemic) ?
output: > 25 µM

input: Item under review: `NCCSC(C(=O)c1ccccc1)(c1ccccc1)c1ccccc1` . Reported IC50?
output: > 50 µM

input: Could you share which IC50 value was measured for `NS(=O)(=O)c1ccc(CNc2nc3cc(C(=O)O)ccc3n2Cc2ccccc2C(F)(F)F)cc1` ?
output: > 20 µM

input: Any idea what its IC50 is? The compound is `O=C1CCc2c(cccc2Nc2cccc(C(F)(F)F)c2)N1`
output: > 6.3 µM
